- TARGET_OR_TEST_SYSTEM: aminopeptidase N (APN), recombinant human enzyme (Homo sapiens)
- Construct: purchased R&D System
- Sequence (P15144 whole entry): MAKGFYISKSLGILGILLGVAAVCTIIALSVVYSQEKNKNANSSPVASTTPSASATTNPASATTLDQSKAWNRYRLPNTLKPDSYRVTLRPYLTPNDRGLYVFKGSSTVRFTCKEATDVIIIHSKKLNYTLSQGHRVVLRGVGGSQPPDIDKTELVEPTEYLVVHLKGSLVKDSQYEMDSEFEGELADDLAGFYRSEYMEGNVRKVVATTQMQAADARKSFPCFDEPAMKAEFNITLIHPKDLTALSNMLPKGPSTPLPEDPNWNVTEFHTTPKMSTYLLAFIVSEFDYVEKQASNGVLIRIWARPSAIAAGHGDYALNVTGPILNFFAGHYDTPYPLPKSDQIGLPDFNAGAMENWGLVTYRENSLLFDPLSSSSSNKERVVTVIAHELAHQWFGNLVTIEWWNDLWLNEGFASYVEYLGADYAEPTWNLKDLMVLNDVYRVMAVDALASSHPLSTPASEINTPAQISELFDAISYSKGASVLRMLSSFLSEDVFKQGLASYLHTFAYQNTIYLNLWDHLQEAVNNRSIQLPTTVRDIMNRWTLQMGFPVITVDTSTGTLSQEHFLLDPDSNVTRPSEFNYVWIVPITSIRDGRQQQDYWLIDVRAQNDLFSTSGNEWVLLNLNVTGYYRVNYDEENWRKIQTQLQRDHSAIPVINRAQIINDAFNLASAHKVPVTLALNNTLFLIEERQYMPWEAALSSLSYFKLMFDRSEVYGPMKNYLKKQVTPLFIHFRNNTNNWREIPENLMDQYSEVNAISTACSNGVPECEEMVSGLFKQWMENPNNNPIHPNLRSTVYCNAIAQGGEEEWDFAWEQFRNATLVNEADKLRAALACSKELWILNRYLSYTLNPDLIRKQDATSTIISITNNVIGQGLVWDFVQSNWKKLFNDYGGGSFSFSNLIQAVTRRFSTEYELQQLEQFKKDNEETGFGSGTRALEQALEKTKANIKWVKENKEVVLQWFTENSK
- EXPERIMENT: Neutral aminopeptidase (APN) assay, substrate L-Ala-β-NA
- Assay type: biochemical
- CONDITION_SUMMARY: APN-rh 50 ng/mL, substrate 50 μM, 50 mM Tris pH 7.4, 37° C.; read-out: APN (nM), inhibitory power Ki
Listed here: items and their measured Ki.

# COMPOUND, UNIT_TAG, RELATION_QUALIFIER, Ki
measured = [
    ("C[C@H](NC(=O)[C@@H](Cc1ccc(-c2ccccc2)cc1)CN(O)C=O)C(=O)O", "nM", "=", 817),
    ("O=CN(O)C[C@@H](Cc1ccccc1)C(=O)N[C@@H](Cc1ccccc1)C(=O)O [Ib-1]", "nM", "=", 24),
    ("C[C@H](NC(=O)[C@@H](Cc1ccccc1)CN(O)C=O)C(=O)O [Ia-2]", "nM", ">", 10000),
    ("C[C@H](NC(=O)[C@H](Cc1ccc(-c2ccccc2)cc1)CN(O)C=O)C(=O)O", "nM", "=", 86),
    ("C[C@H](NC(=O)[C@H](Cc1ccccc1)CN(O)C=O)C(=O)O [Ia-1]", "nM", "=", 143),
    ("O=CN(O)C[C@H](Cc1ccccc1)C(=O)N[C@@H](Cc1ccccc1)C(=O)O [Ib-2]", "nM", ">", 10000),
    ("O=CN(O)C[C@@H](Cc1ccccc1)C(=O)N[C@H](CC(=O)O)Cc1ccccc1 [Ic-1]", "nM", "=", 12),
]

----------
- TARGET_OR_TEST_SYSTEM: LTA4H (Homo sapiens, UniProt P09960)
- Sequence (P09960 1-611): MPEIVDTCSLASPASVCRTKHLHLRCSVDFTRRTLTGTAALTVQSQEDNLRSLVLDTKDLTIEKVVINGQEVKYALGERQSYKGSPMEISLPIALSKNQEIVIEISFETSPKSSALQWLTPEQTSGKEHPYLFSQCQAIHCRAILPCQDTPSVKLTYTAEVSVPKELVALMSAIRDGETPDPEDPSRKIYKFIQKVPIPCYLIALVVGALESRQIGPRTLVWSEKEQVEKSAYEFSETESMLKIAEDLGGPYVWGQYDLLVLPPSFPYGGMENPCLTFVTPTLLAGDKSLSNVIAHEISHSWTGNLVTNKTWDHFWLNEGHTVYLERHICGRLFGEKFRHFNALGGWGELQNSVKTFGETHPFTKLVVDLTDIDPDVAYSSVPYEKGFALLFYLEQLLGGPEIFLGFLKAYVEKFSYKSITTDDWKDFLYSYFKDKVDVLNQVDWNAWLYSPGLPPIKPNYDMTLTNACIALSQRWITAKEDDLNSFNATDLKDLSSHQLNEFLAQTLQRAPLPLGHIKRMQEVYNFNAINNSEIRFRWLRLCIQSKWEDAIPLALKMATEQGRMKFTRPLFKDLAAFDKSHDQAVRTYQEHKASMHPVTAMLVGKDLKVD
- EXPERIMENT: LTA4 hydrolase assay, substrate (L)-Ala-β-naphthylamide
- Type: biochemical
- CONDITION_SUMMARY: recombinant enzyme 0.6 μg/mL, substrate 1 mM, 50 mM Tris HCl pH 7.4, 100 mM NaCl, 37° C.; read-out: LTA4H (nM), inhibitory power Ki
MEASURED_QUANTITY: Ki (nM)

# GIVEN_SMILES, MEASURED_QUANTITY, RELATION_QUALIFIER, ENDPOINT_RESULT
records = [
    ("C[C@H](NC(=O)[C@@H](Cc1ccc(-c2ccccc2)cc1)CN(O)C=O)C(=O)O", "Ki", ">", 10000),
    ("C[C@H](NC(=O)[C@H](Cc1ccccc1)CN(O)C=O)C(=O)O", "Ki", "=", 7.5),
    ("O=CN(O)C[C@@H](Cc1ccccc1)C(=O)N[C@@H](Cc1ccccc1)C(=O)O", "Ki", "=", 26),
    ("C[C@H](NC(=O)[C@H](Cc1ccc(-c2ccccc2)cc1)CN(O)C=O)C(=O)O", "Ki", "=", 6.1),
    ("O=CN(O)C[C@@H](Cc1ccccc1)C(=O)N[C@H](CC(=O)O)Cc1ccccc1", "Ki", "=", 443),
]

Source: patent US20220289668A1
